- assayed_target: prolectin (Homo sapiens, UniProt Q6ZS10)
- Sequence (Q6ZS10 194-378 limits assumed): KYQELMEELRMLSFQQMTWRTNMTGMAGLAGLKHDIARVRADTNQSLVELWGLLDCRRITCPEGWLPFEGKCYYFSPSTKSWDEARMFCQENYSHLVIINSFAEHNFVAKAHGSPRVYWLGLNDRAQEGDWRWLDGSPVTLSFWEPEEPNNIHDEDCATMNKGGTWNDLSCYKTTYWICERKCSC
- assay_protocol: solid-phase competition binding, […]-Man-BSA reporter
- experimental_context: competitive; immobilised extracellular domain; Ca2+-dependent site
endpoint_name: Relative KI

Guide cases for Relative KI, answers given:
molecule	assayed_target	endpoint_name	value_reported
C[C@@H]1OC(O)[C@@H](O)[C@H](O)[C@@H]1O (stereo partly shown) [Fuc]	prolectin (Homo sapiens, UniProt Q6ZS10)	Relative KI	1.1 ± 0.1 relative to KI of αMe-Man
OC[C@H]1OC(O)[C@@H](O)[C@@H](O)[C@@H]1O (stereo partly shown) [Man]	prolectin (Homo sapiens, UniProt Q6ZS10)	Relative KI	1.2 ± 0.1 relative to KI of αMe-Man
CC(=O)N[C@H]1C(O)O[C@H](CO)[C@@H](O[C@@H]2O[C@H](CO)[C@H](O)[C@H](O)[C@H]2O)[C@@H]1O[C@@H]1O[C@@H](C)[C@@H](O)[C@@H](O)[C@@H]1O (stereo partly shown) [Le^x]	prolectin (Homo sapiens, UniProt Q6ZS10)	Relative KI	0.72 ± 0.08 relative to KI of αMe-Man
CC(=O)N[C@H]1C(O)O[C@H](CO)[C@@H](O)[C@@H]1O (stereo partly shown) [GlcNAc]	prolectin (Homo sapiens, UniProt Q6ZS10)	Relative KI	1.2 ± 0.1 relative to KI of αMe-Man

Task item: State the recorded Relative KI for this entry: CO[C@H]1O[C@H](CO)[C@H](O)[C@H](O)[C@H]1O [αMe-Gal]
Reply: > 30 relative to KI of αMe-Man

Task item: State the recorded Relative KI for this entry: CO[C@H]1O[C@H](CO)[C@@H](O)[C@H](O)[C@H]1O [αMe-Glc]
Reply: 3.2 ± 0.1 relative to KI of αMe-Man

Task item: State the recorded Relative KI for this entry: CC(=O)N[C@H]1C(O)O[C@H](CO)[C@@H](O[C@@H]2O[C@@H](C)[C@@H](O)[C@@H](O)[C@@H]2O)[C@@H]1O[C@@H]1O[C@H](CO)[C@H](O)[C@H](O)[C@H]1O (stereo partly shown) [Le^a]
Reply: 0.22 ± 0.01 relative to KI of αMe-Man
